Entry source: PubChem BioAssay (NCI)

measurement.description: NCI Yeast Anticancer Drug Screen. Data for the mec2-1 strain (AID 157)
run.conditions: S. cerevisiae mec2-1 strain, at 5.0 µM (retest, dose inferred, filed as 0.5), hits give high values
This is part of a sample that, as a whole, favours compounds with a hit. Of some 79,000 tested, about 15% had one in any assay.
The entries below are paired with their reported growth inhibition.
observed.property: growth inhibition (%)

> print(dat)
                                    compound  assay.result
 1  OCC1(O)OCC(O)C(O)C1O (stereo unspecified)            -2
 2  Cc1ccc(S(=O)(=O)NC(CCC(=O)Nc2ccccc2)C(=O)O)cc1 (stereo unspecified)            -4
 3              N#CC(C#N)C(c1ccccc1)c1ccccc1             6
 4              CN1C(Cl)=NS(=O)(=O)c2ccccc21            14
 5            CCOC(=O)C(=Cc1cccnc1C)C(=O)OCC            -3
 6  CC(NC(=O)OC(C)(C)C)C(=O)NC(Cc1ccccc1)C(=O)NCC(=O)Oc1c(Cl)c(Cl)c(Cl)c(Cl)c1Cl (stereo unspecified)            27
 7  NC(=S)n1nc(-c2ccccc2)c(N=Nc2ccccc2Cl)c1-c1ccccc1             0
 8  CC(CC(C)[C@H]1CCC2[C@H]3C(CC[C@@]21C)[C@@]1(C)CCC(O)C[C@H]1C[C@@H]3O)C(=O)O (stereo partly specified)            -7
 9  CC(=O)Oc1c(C)cc([N+](=O)[O-])cc1[N+](=O)[O-]             1
10  CN(C)CC(C)(CN(C)C)C(=O)/C=C/c1ccc(Cl)c(Cl)c1            18
11  O=C(CCc1ccccc1)COC(=O)c1ccc([N+](=O)[O-])cc1            -2
